- Tested System: mCMKLR1-HA on L1.2 transfectants (mouse) (UniProt P97468)
- Sequence (P97468 whole entry): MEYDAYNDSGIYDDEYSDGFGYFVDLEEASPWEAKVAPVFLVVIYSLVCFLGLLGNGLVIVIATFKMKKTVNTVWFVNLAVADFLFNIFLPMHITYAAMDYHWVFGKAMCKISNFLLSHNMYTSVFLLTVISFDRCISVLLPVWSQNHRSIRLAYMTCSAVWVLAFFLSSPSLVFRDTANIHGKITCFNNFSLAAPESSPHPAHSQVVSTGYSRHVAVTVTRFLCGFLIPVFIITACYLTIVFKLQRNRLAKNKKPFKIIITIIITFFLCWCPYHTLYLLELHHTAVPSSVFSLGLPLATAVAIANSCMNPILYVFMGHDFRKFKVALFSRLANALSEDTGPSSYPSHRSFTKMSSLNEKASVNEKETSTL
- Experiment: radioligand binding
Readout Label: pEC50
Give bare numbers, as −log10 of the molar value.

Request: Fill blank: measured pEC50 of the substance C-terminal His8-tagged serum form human chemerin (NH2-ADPELTE……-COOH) (from UniProt Q99969 21-155) (ligand) is ____.
Result: 7.58
